target.of.assay: recombinant human PIM1 (Homo sapiens (Human))
Sequence (P11309 whole entry): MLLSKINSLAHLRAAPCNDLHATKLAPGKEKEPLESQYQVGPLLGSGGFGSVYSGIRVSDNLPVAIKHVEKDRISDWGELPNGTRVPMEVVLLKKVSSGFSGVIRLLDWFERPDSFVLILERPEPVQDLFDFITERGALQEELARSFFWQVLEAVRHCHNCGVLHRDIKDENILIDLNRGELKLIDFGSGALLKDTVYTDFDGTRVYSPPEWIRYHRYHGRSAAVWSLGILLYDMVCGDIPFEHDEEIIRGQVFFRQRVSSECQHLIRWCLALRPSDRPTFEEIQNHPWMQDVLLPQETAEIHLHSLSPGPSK
protocol.description: PIM-1 kinase activity in cell-free in vitro assay
Format: biochemical
test.parameters: 500 nM compound, cell-free assay; read-out: PIM-1: % inh 500 nM
property.measured: inhibition at 0.5 µM (%)

{"columns": ["compound", "property.measured", "number"],
 "data": [
  ["O=C(O)c1ccc2c(c1)nc(Nc1ccccc1)c1nc(NCCCO)ncc12", "inhibition at 0.5 µM", 49.3],
  ["COCCNc1nc2cc(C#N)ccc2c2sccc12", "inhibition at 0.5 µM", -30.6],
  ["CN1CCCCC1CNc1nc2cc(-c3nnn[nH]3)ccc2c2sccc12 (stereo not shown)", "inhibition at 0.5 µM", 90.9],
  ["O=C(O)c1ccc2c(c1)nc(Nc1ccccc1)c1nc(NC3CC3)ncc12", "inhibition at 0.5 µM", 18.4],
  ["CC(C)c1cccc(Nc2nc3cc(C(=O)O)ccc3c3cnccc23)c1", "inhibition at 0.5 µM", 72.4],
  ["CNC(=O)c1ccc2c(c1)nc(N(C)c1ccccc1)c1nc(NC3CC3)ncc12", "inhibition at 0.5 µM", 12.6],
  ["O=C(O)c1ccc2c(c1)nc(Nc1ccccc1)c1nc(NCCO)ncc12", "inhibition at 0.5 µM", 45.6],
  ["O=C(O)c1ccc2c(c1)nc(Nc1cccc(F)c1)c1nc(NC3CC3)ncc12", "inhibition at 0.5 µM", 59.3],
  ["Cc1c(-c2cc(Nc3nc4cc(C(=O)O)ccc4c4cnccc34)n(C)n2)sc2ccc(Cl)cc12", "inhibition at 0.5 µM", 4.53],
  ["C#Cc1cccc(Nc2nc3cc(C(=O)N4CCCN(C)CC4)ccc3c3cncnc23)c1", "inhibition at 0.5 µM", -11.2]
]}

---

# IC50 listing for each entry below
System: K-562
protocol.description: Cell proliferation modulatory activity, K-562
Assay type: cell-based
test.parameters: Homo sapiens, K562; Table 45; read-out: K-562 IC50

{"columns": ["molecule.smiles", "IC50"],
 "data": [
  ["COc1cccc(CNc2nc3c(-c4nc[nH]n4)cccc3c3cnccc23)c1", "< 0.5 µM"],
  ["Fc1ccc(Nc2nc3c(-c4nc[nH]n4)cccc3c3cnccc23)c(F)c1", "< 5 µM"],
  ["c1ccc(Nc2nc3c(-c4nnc[nH]4)cccc3c3cnccc23)cc1", "< 5 µM"],
  ["FC(F)(F)c1cccc(Nc2nc3c(-c4nnc[nH]4)cccc3c3cnccc23)c1", "< 5 µM"],
  ["COc1ccccc1Nc1nc2c(-c3nnc[nH]3)cccc2c2cnccc12", "< 5 µM"],
  ["CCOc1ccc(Nc2nc3c(-c4nnc[nH]4)cccc3c3cnccc23)cc1", "< 5 µM"],
  ["Fc1ccc(Nc2nc3c(-c4nnc[nH]4)cccc3c3cnccc23)cc1Cl", "< 5 µM"],
  ["Cc1ccccc1Nc1nc2c(-c3nnc[nH]3)cccc2c2cnccc12", "< 1 µM"],
  ["CN(c1ccccc1Cl)c1nc2c(-c3nnc[nH]3)cccc2c2cnccc12", "< 5 µM"],
  ["Cc1cc(F)ccc1Nc1nc2c(-c3nnc[nH]3)cccc2c2cnccc12", "< 0.5 µM"]
]}

---

target.of.assay: recombinant human CK2 (Homo sapiens (Human), UniProt P68400)
Sequence (P68400 whole entry): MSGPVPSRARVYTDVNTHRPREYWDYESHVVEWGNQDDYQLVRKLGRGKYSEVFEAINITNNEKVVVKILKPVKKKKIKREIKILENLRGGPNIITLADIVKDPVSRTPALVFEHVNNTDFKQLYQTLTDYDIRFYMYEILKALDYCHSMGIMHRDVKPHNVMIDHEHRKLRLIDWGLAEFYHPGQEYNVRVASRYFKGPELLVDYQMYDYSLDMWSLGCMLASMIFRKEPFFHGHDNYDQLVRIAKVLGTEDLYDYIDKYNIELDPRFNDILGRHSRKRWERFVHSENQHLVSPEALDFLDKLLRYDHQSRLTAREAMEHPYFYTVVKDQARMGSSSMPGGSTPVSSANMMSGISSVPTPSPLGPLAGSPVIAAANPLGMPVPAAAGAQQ
Sequence (P67870 whole entry partner): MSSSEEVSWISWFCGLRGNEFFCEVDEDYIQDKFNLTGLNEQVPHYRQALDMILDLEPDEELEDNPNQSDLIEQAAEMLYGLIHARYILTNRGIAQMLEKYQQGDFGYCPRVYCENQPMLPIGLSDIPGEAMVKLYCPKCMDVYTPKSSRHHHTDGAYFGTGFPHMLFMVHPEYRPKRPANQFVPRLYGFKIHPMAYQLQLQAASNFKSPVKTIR
protocol.description: CK2 assay (cell-free, 33P-ATP filter plate)
Type: biochemical
test.parameters: 500 nM compound, cell-free assay; read-out: CK2: % inh 500 nM
Label rule, in plain words: inhibition at 0.5 µM of 40% and up is rule met, under 40% is rule not met.

{"columns": ["compound", "label"],
 "data": [
  ["O=C(O)c1cccc2c1nc(Nc1cccc(Cl)c1)c1ccncc12 [drawing 2001]", "rule not met"],
  ["N#Cc1ccc2c(c1)nc(OCc1ccccc1)c1ccsc12", "rule not met"],
  ["CC(C)Nc1ncc2c(n1)c(N(C)c1ccccc1)nc1cc(C(=O)O)ccc12", "rule met"],
  ["Fc1ccc(Nc2nc3cc(-c4nnn[nH]4)ccc3c3ccsc23)cc1Cl", "rule not met"],
  ["CC(C)(C)OC(=O)N1CCC(Nc2nc3cc(C#N)ccc3c3ccsc23)CC1", "rule not met"],
  ["O=C(O)c1ccc2c(c1)nc(Nc1ccccc1)c1nccnc12", "rule met"],
  ["CCN1CCCC1CNc1nc2cc(-c3nnn[nH]3)ccc2c2cscc12 (stereo not drawn)", "rule met"],
  ["O=C(O)c1ccc2c(c1)nc(Nc1ccc(F)c(Cl)c1)c1cccnc12", "rule not met"],
  ["N#Cc1ccc2c(c1)nc(N1CCNC(=O)C1)c1ccsc12", "rule not met"],
  ["CN(C)CCCNc1nc2cc(C#N)ccc2c2sccc12", "rule not met"],
  ["CCN1CCC[C@@H]1CNc1nc2cc(-c3nnn[nH]3)ccc2c2sccc12", "rule met"],
  ["O=C(O)c1ccc2c(c1)nc(Nc1ccc(Br)cc1)c1ccncc12", "rule met"],
  ["CC(=O)N1CCN(c2nc3cc(C#N)ccc3c3sccc23)CC1", "rule not met"],
  ["CN(C)C1CCN(c2nc3cc(C#N)ccc3c3sccc23)CC1", "rule not met"],
  ["CN1CCCCC1CNc1nc2cc(-c3nnn[nH]3)ccc2c2cscc12 (stereo not drawn)", "rule met"],
  ["O=C(O)c1ccc2c(c1)nc(NCCc1ccccc1)c1nccnc12", "rule not met"],
  ["N#Cc1ccc2c(c1)nc(NCCc1ccccn1)c1ccsc12", "rule not met"],
  ["N#Cc1ccc2c(c1)nc(N1CCNCC1)c1ccsc12", "rule not met"],
  ["N#Cc1ccc2c(c1)nc(NCC1CCCN1)c1ccsc12 (stereo not drawn)", "rule not met"],
  ["N#Cc1ccc2c(c1)nc(Oc1ccccc1)c1ccsc12", "rule not met"],
  ["CN1CCN(c2nc3cc(-c4nnn[nH]4)ccc3c3sccc23)CC1", "rule not met"],
  ["CC1(C)CC(Nc2nc3cc(C#N)ccc3c3sccc23)CC(C)(C)N1", "rule not met"],
  ["CC(C)(C)OC(=O)NC1CCN(c2nc3cc(C#N)ccc3c3sccc23)C1 (stereo not drawn)", "rule not met"],
  ["Fc1cc(Cl)cc(Nc2nc3cc(-c4nnn[nH]4)ccc3c3cscc23)c1", "rule met"],
  ["COC(=O)c1ccc2c(c1)nc(NCCN1CCCC1)c1ccncc12", "rule not met"],
  ["Cc1nn(C)c(C)c1NC(=O)NCc1ccc2c(c1)nc(Nc1cccc(F)c1)c1ccsc12", "rule not met"],
  ["CN(C)CCNc1nc2cc(C#N)ccc2c2cscc12", "rule not met"],
  ["c1ccc(CNc2nc3cc(-c4nnn[nH]4)ccc3c3sccc23)nc1", "rule not met"],
  ["CCOCCNc1ncc2c(n1)c(N(C)c1ccccc1)nc1cc(C(=O)O)ccc12", "rule met"],
  ["CC(C)OCCNc1nc2cc(C(=O)O)ccc2c2cnccc12", "rule met"],
  ["CN(C)CCN(C)c1nc2cc(C#N)ccc2c2sccc12", "rule met"],
  ["c1ccc(COc2nc3cc(-c4nnn[nH]4)ccc3c3sccc23)cc1", "rule not met"],
  ["N#Cc1ccc2c(c1)nc(NCc1ccc(C(N)=O)cc1)c1ccsc12", "rule not met"],
  ["CN1CCCCC1CNc1nc2cc(C#N)ccc2c2cscc12 (stereo not drawn)", "rule not met"],
  ["NC(=O)c1ccc2c(c1)nc(Nc1cc(F)cc(Cl)c1)c1ccncc12", "rule met"],
  ["O=C(O)c1ccc2c(c1)nc(NCCc1ccccn1)c1ccncc12", "rule met"],
  ["O=C(O)c1ccc2c(c1)nc(Nc1ccc(F)c(Cl)c1)c1cnccc12", "rule not met"],
  ["COc1ccc(CCNc2nc3cc(C(=O)O)ccc3c3cnccc23)cc1OC", "rule met"],
  ["N#Cc1ccc(Nc2nc3cc(C(=O)O)ccc3c3cnccc23)cc1", "rule met"],
  ["CN(CCc1ccccn1)c1nc2cc(C(=O)O)ccc2c2cnccc12", "rule met"],
  ["CONc1nc2cc(C(=O)O)ccc2c2cnccc12", "rule met"],
  ["O=c1[nH]c2cnccc2c2cnccc12", "rule not met"],
  ["COC(=O)c1ccc2c(c1)nc(NCCN(C)C)c1ccsc12", "rule not met"],
  ["O=C(O)c1ccc2c(c1)nc(Nc1ccc3ncccc3c1)c1ccncc12", "rule met"]
]}

---

# IC50 listing for each entry below
Test system: K-562
protocol.description: Cell-proliferation assay using Alamar Blue dye
Format: cell-based
test.parameters: Homo sapiens, K562

{"columns": ["compound", "IC50 [µM]"],
 "data": [
  ["O=C(O)c1ccc2c(c1)nc(NCCc1cccc(Cl)c1)c1ccncc12 [drawing 1001]", 9.18],
  ["O=C(O)c1ccc2c(c1)nc(NCCCc1ccccc1)c1ccncc12 [drawing 1003]", 7.17]
]}

---

# TAK1 percentage of activity listing for each entry below
target.of.assay: UniProtKB O43318
protocol.description: Standardized radiometric kinase assays, percentage of activity at 0.5 μM;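 further: Read-out is ³³P-labelled substrate protein phosphorylated by each kinase, captured on filters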

{"columns": ["molecule", "TAK1 percentage of activity (%)"],
 "data": [
  ["C#Cc1cccc(Nc2nc3cc(C(=O)O)ccc3c3cncnc23)c1 [drawing 1135]", "−1"],
  ["O=C(O)c1ccc2c(c1)nc(Nc1cccc(Cl)c1)c1ccncc12 [drawing 1136]", 4],
  ["C#Cc1cccc(Nc2nc3cc(C(=O)O)ccc3c3cnccc23)c1 [drawing 1137]", 6],
  ["NC(=O)c1ccc2c(c1)nc(Nc1cccc(Cl)c1)c1ccncc12 [drawing 1138]", 12]
]}
